molecular target: the molecule itself; test: AUC
readout: stoichiometry N

[in] So what does the record say about stoichiometry N for LI Int carboxy-terminal domain, CTD (133-452) (domain or fragment, Listeria innocua (prophage), UniProt Q928V6 133-452, looked up) RDRMVMGKIKRIEAGLPLTTAKGRTFGYDVIDTKLYINEEEAKQLRLIYDIFEEEQSITFLQKRLKKLGFKVRTYNRYNNWLTNDLYCGYVSYKDKVHVKGIHEPIISEEQFYRVQEIFSRMGKNPNMNKESASLLNNLVVCSKCGLGFVHRRKDTVSRGKKYHYRYYSCKTYKHTHELEKCGNKIWRADKLEELIIDRVNNYSFASRNIDKEDELDSLNEKLKIEHAKKKRLFDLYINGSYEVSELDSMMNDIDAQINYYEAQIEANEELKKNKKIQENLADLATVDFNSLEFREKQLYLKSLINKIYIDGEQVTIEWL ?
[out] 2
